# Tested on: MDA-MB-435
# PROCEDURE TEXT: NCI tumour cell line growth inhibition, 48 h
Active and inactive are the calls of the source. No stated cut-off is given here; in the data, active = GI50 up to about 1.1 µM and inactive = higher.
GI50 listing for selected compounds.
MEASURED PARAMETER: GI50

INSERT INTO results (compound, reported_result) VALUES
  ('COC(=O)CC(=O)Nc1sccc1S(=O)(=O)c1ccccc1', '> 100 µM (inactive)'),
  ('FC1(F)SC2CCCCCCCCCCC2C1(F)F (stereo unspecified)', '28.3 µM (inactive)'),
  ('C(=N\c1ccc(-c2nc3ccccc3s2)cc1)/c1ccc[nH]1', '19.2 µM (inactive)'),
  ('N#Cc1c(-c2ccccc2)c(/N=N/c2ccc(Cl)cc2)c(=O)n2c1[nH]c1ccccc12', '> 100 µM (inactive)'),
  ('[O-][N+]1=C(c2ccccc2)/C(=C2/C(c3ccccc3)=[N+]([O-])c3ccccc32)Cc2ccccc21', '20.2 µM (inactive)'),
  ('O=C(O)CN1CCN(CC(=O)O)CCN(CC(=O)O)CC1', '30.8 µM (inactive)');

----------
# System: SNB-19
# PROCEDURE TEXT: NCI tumour cell line growth inhibition, 48 h
Active and inactive are the calls of the source. No stated cut-off is given here; in the data, active = GI50 up to about 1.1 µM and inactive = higher.
MEASURED PARAMETER: GI50

INSERT INTO measurements (compound, reported_result) VALUES
  ('CCOc1ccc(/N=N/C2C(=O)N(C(=O)CC(=O)Nc3ccc(C)cc3)N=C2C)cc1 (stereo not given)', '14.3 µM (inactive)'),
  ('Nc1nc(N)c(CCCCc2ccccc2)c(/C=C/c2ccc([N+](=O)[O-])cc2)n1', '3.8 µM (inactive)'),
  ('COc1cc(C(=O)C/C(CCCC(=O)Nc2ccccc2[N+](=O)[O-])=N/NC(=O)c2cc3ccccc3cc2O)ccc1O', '> 80.2 µM (inactive)'),
  ('Cc1nc2c(sc(=S)n2-c2ccccc2)c2nc3ccccc3n12', '> 100 µM (inactive)'),
  ('O=C1C2=C(c3ccccc31)C(c1ccc(F)cc1)N1C(=O)CCSC1=N2 (stereo not given)', '> 100 µM (inactive)'),
  ('CN(Cc1cc(Cl)cc(Cl)c1)CC(C(=O)c1ccccc1)c1ccccc1 (stereo not given)', '14.4 µM (inactive)'),
  ('C[N+](C)(C)Cc1c(CC#N)[nH]c2ccccc12', '> 100 µM (inactive)'),
  ('O=C(Cn1c(=O)oc2ccccc21)N(c1ccccc1)c1ccccc1', '> 100 µM (inactive)'),
  ('O=c1cc(NNc2ccccc2F)[nH]c(=O)[nH]1', '> 100 µM (inactive)'),
  ('O=C(CCCCCCCCC(=O)N1C(=O)CC(=O)N(c2cccc(Cl)c2)C1=S)N1C(=O)CC(=O)N(c2cccc(Cl)c2)C1=S', '33.7 µM (inactive)'),
  ('C#CC[N+](CCO)(CCO)CCCCCCCCCCCCCCCCCC', '5.92 µM (inactive)'),
  ('CC1OC(CO)(n2cnc3c(N)ncnc32)C(O)C1O (stereo not given)', '> 100 µM (inactive)'),
  ('Cc1ccc(NC(=O)c2cccc(OP(=O)(Nc3ccc(C)cc3)Nc3ccc(C)cc3)c2)cc1', '35.1 µM (inactive)'),
  ('CCOC(=O)C(NC(=O)CC)(Nc1ccc(S(=O)(=O)Nc2ncccn2)cc1)C(F)(F)F (stereo not given)', '> 100 µM (inactive)'),
  ('Cc1ccc(C)c(NC(=O)C(=O)C(C2C(C)CC(=O)C2CC(=O)O)[N+](=O)[O-])c1 (stereo not given)', '> 100 µM (inactive)'),
  ('CCC1OC2C(CC=C(C)C)=C3OC(C)(O)C(C)(CC)C(OC(=O)c4ccccc4)C3=C3OC(=O)C=C1C32 (stereo not given)', '23.8 µM (inactive)'),
  ('O=C(Cn1c2c(c3ccccc31)CCCC2)N1CCCC1', '> 100 µM (inactive)'),
  ('COc1cc(C(=O)C/C(CCC(=O)Nc2ccc(Cl)cc2C)=N/NC(=O)C(N)=O)ccc1O', '> 100 µM (inactive)'),
  ('O=C(O)C1OC(n2cc(F)c(=O)[nH]c2=O)CC1O (stereo not given)', '52.5 µM (inactive)'),
  ('O=C1CCCC2=C1CC1=C(CCCC1=O)N2c1ccc(Cl)cc1', '> 100 µM (inactive)');
